# target: T1, hPDGFRb.mmh (human, UniProt P09619 33-531)
# T1 construct: Soluble monomeric construct; also called soluble human PDGFR-beta.mmh
# T1 sequence (P09619 other isoform, or with tags, fused parts or gaps): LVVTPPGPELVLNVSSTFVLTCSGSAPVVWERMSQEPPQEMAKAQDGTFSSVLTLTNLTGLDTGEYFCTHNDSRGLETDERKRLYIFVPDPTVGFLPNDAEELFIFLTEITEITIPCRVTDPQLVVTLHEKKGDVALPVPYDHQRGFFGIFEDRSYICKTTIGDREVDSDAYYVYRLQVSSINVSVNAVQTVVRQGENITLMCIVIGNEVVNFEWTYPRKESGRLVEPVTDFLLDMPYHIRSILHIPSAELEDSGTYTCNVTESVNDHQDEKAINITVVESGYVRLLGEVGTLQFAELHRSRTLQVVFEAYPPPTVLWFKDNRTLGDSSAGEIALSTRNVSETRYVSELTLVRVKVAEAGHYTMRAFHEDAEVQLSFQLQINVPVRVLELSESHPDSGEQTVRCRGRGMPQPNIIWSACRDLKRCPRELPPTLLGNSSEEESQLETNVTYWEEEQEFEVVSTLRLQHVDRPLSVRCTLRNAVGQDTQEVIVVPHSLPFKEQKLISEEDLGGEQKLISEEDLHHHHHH
# assayText: SPR, mAb captured, 37 C
pKd: −log10 of the molar value.
Assign class 1 to entries whose pKd meets or exceeds 8; assign class 0 to the rest.

[
  {
    "binder": "H4H3098S (antibody, human IgG4, V domains shown, human IgG4 Fc (H4H prefix)) VH: EVQLVESGGGVVQPGRSLRLSCAASGFTFSNYGMHWVRQAPGKGLEWVTVIWYDGSYKYYADSVKGRFTISRDNSKNRLYLQMNSLRAEDTAVYYCARGELGDAFDIWGQGTMVTVSS VL: DIQMTQSPSTLSASVGDRLTITCRASQSISTWLAWYQQKPGKAPTLLIYKASSLESGVPSRFSGSGSGTDFTLTISSLQPDDFATYYCQQYKTSWTFGQGTKLEIKR",
    "group": "class 1"
  }
]

query: Could you verify whether the entry H2M3373N (antibody, V domains shown, mouse Fc (H2M prefix; isotype not spelled out)) VH: EVQLRDSGGGLVQPGGSLRLSCVASGFTFSSYWMSWVRQAPGKGLEWVVNINRDGSEKYYVDSVKGRFIISRDNTKNSLYLQMESLRAEDTAVYYCARDPPYHLYGMDVWGQGTTVTVSS VL: DIQMTQSPSSLSASVGDRVTITCRTSQGIRVDLAWYQQKPGKAPERLIYAASSLQSGVPSRFSGGGSGTEFTLTVSSLQPEDFATYYCLQHHNFPYTFGQGTKLEIK shows pKd of no less than 8?
result: class 0
